In this section we review reported normalized growth values for a set of compounds.
Assay: chemical genetic growth profiling, strain panel (AID 1159580);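 also: tested at 20 µM; growth read once vehicle control cultures reached saturation at 30 °C; 1 = growth at the plate median or of vehicle wells; lower values mean less growth of the strain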
Conditions: S. cerevisiae deletion strains, growth OD, locus YOL006C, strain TOP1, stronger effect = lower value
Among all 5,500 compounds or so, about 2,000 (36%) were called active. Another 18% or so got no clear call; they are omitted. This is one part of the list.

compound: NCC(O)CC(=O)O (stereo not drawn)
normalized growth: 0.988
--
compound: N#CCCN1C(=O)C2(OCCO2)c2ccccc21
normalized growth: 1.02
--
compound: OCC(O)Cn1c2ccccc2c2ccccc21 (stereo not drawn)
normalized growth: 1
--
compound: Cc1c(OCC(F)(F)F)ccnc1CS(=O)c1nc2ccccc2[nH]1 (stereo not drawn)
normalized growth: 0.989
--
compound: COC1=CC(C)[C@@H]2C[C@H]3OC(=O)C[C@H]4C(C)=C(OC)C(=O)C([C@@]34C)[C@@]2(C)C1=O (stereo partly drawn)
normalized growth: 1.08
--
compound: CN(C)CC[C@H](c1ccc(Cl)cc1)c1ccccn1
normalized growth: 1
--
compound: NC(N)=Nc1ccc(Cl)cc1
normalized growth: 1.18
--
compound: COc1cc([N+](=O)[O-])c(OC)cc1SCC(=O)NNC(=O)c1cc(OC)c(OC)c(OC)c1
normalized growth: 0.931
--
compound: CC(=O)N1CCCC1C(=O)O (stereo not drawn)
normalized growth: 1.03
--
compound: NC[C@@H]1O[C@H](O[C@@H]2[C@@H](CO)OC(O[C@@H]3[C@@H](O)[C@H](N)C[C@H](N)[C@H]3O[C@H]3O[C@H](CO)[C@@H](O)[C@H](O)[C@H]3N)[C@@H]2O)[C@H](N)[C@@H](O)[C@@H]1O (stereo partly drawn)
normalized growth: 0.932
--
compound: C/C=C(\C)C(=O)O[C@@H]1c2c(ccc3ccc(=O)oc23)OC(C)(C)[C@@H]1OC(C)=O
normalized growth: 1.04
--
compound: CC(=O)CS(=O)(=O)c1ccc(Cl)cc1
normalized growth: 1.01
--
compound: NC(N)=NC(N)=Nc1cc(Cl)cc(Cl)c1
normalized growth: 1.06
--
compound: Cc1ccc(NC(=O)CC#N)c(C)c1
normalized growth: 0.951
--
compound: O=C(O)CN(CCN(CC(=O)O)CC(=O)O)CC(=O)O
normalized growth: 1.23
--
compound: C[C@H]1O[C@@H](O[C@H]2[C@@H](O)C[C@H](O[C@H]3[C@@H](O)C[C@H](O[C@H]4CC[C@]5(C)C6C[C@@H](O)[C@]7(C)[C@@H](C8=CC(=O)OC8)CC[C@]7(O)C6CC[C@@H]5C4)O[C@@H]3C)O[C@@H]2C)C[C@H](O)[C@@H]1O (stereo partly drawn)
normalized growth: 0.959
--
compound: C[C@@H](CO)NC(=O)C1C=C2c3cccc4[nH]cc(c34)C[C@H]2N(C)C1 (stereo partly drawn)
normalized growth: 1.09
--
compound: CC1(C)Oc2ccc3ccc(=O)oc3c2CC1O (stereo not drawn)
normalized growth: 1.02

###

Assay: chemical genetic growth profiling, strain panel (AID 1159580);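 also: tested at 20 µM; growth read once vehicle control cultures reached saturation at 30 °C; 1 = growth at the plate median or of vehicle wells; lower values mean less growth of the strain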
Settings: S. cerevisiae deletion strains, growth OD, locus YNL197C, strain WHI3
In all, about 5,500 compounds went through this assay and about 2,000 (36%) were called active. Another 18% or so got no clear call; they are omitted. Rule as the data show it: active = normalized growth mostly below about 0.91 (no sharp cut-off); inconclusive = no clear call, values can overlap the other calls; inactive = mostly above about 0.92. Some of the results follow.
Labels: active, inactive

smiles: CC(=O)N1CCN(c2ccc(OC[C@H]3CO[C@](Cn4ccnc4)(c4ccc(Cl)cc4Cl)O3)cc2)CC1
assignedClass: active
//
smiles: O=C1CC2(CCCC2)CC(=O)N1CCCCN1CCN(c2ncccn2)CC1
assignedClass: inactive
//
smiles: O=C(CCCN1CCC(O)(c2ccc(Cl)cc2)CC1)c1ccc(F)cc1
assignedClass: inactive
//
smiles: O=C1NCN(c2ccccc2)C12CCN(CCCC(c1ccc(F)cc1)c1ccc(F)cc1)CC2
assignedClass: inactive

Attribution: PubChem BioAssay AID1159580
